Reported TGI values follow for various molecules
test system: COLO 205 colon; assay: NCI tumour cell line growth inhibition, 48 h

{"molecule": "O=c1c2ccccc2n2n1Cc1ccccc1C2", "TGI": "> 100 µM"}
{"molecule": "Cc1ccc(C2SC(N)=Nc3c2c(C)nn3C(=O)c2ccc(Cl)cc2)cc1 (stereo unspecified)", "TGI": "> 10 µM"}
{"molecule": "COc1cc([N+](=O)[O-])c(OC)cc1-c1nc2n(c1/C(N)=N/C(=N)N)CCS2", "TGI": "> 100 µM"}
{"molecule": "CCOC(=O)/C(=C/c1ccc(Cl)cc1)N(CC)CC", "TGI": "> 100 µM"}
{"molecule": "O=C(Nc1ccc(N2C(=O)CSC2c2cccs2)cc1)c1ccc(N2C(=O)CSC2c2cccs2)cc1 (stereo unspecified)", "TGI": "> 100 µM"}
{"molecule": "CC(=O)OCc1c(C)c2ccccc2n1C(C)=O", "TGI": "> 100 µM"}

* * *

Reported TGI values follow for various compounds
system: SF-539 CNS; assay: NCI tumour cell line growth inhibition, 48 h

{"compound": "CS(=O)(=O)N(CC(=O)O)Cc1ccccc1", "TGI": "> 100 µM"}
{"compound": "CC1=C2c3ccccc3N(S(=O)(=O)c3ccccc3)[C@H]2[C@H](C(=O)N2C3CC4CC[C@@]3(CS2(=O)=O)C4(C)C)CC1 (some centres not stated)", "TGI": "> 100 µM"}
{"compound": "COC(=O)C(C(=O)C(=O)Nc1ccc([N+](=O)[O-])cc1)c1nc2cc(C)c(C)cc2[nH]c1=O (configuration not stated)", "TGI": "> 100 µM"}
{"compound": "CCCC(=O)Nc1ncnc2c1ncn2C1OC2COP(=O)(O)OC2C1OC(=O)CCC (configuration not stated)", "TGI": "> 1000 µM"}
{"compound": "CC(=O)[C@]1(C)[C@H](C)O[C@](C)(CO)[C@H]1O[Si](C)(C)c1ccccc1", "TGI": "> 100 µM"}
{"compound": "Cc1cc(O)c(O)c(Oc2cc(C)cc(O)c2O)c1", "TGI": "> 100 µM"}
{"compound": "COc1cc(O)c2c(c1O)C(=O)c1cc(C)ncc1C2=O", "TGI": "> 50 µM"}
{"compound": "CC(C)N(C(=O)C12C3C4C5C3C1(C#N)C5C42)C(C)C (configuration not stated)", "TGI": "> 100 µM"}
{"compound": "O=C1c2ccccc2CCC1(Br)Br", "TGI": "3.74 µM"}
{"compound": "NS(=O)(=O)c1ccc(N=Nc2nc3[nH]cnc(=S)c3[nH]2)cc1", "TGI": "34.4 µM"}
{"compound": "O=C1C2C3CCC(C2C(=O)N1CO)C1C2C(=O)N(CO)C(=O)C2C31 (configuration not stated)", "TGI": "> 85.3 µM"}
{"compound": "O=C(c1ccncc1)N1CCN(C2=NS(=O)(=O)c3ccccc3N2c2ccccc2)CC1", "TGI": "22.8 µM"}

* * *

test system: SF-295 CNS; assay: NCI tumour cell line growth inhibition, 48 h
Please note: class 1 applies when TGI is 60 µM or greater, and class 0 applies otherwise.

{"compound": "O=C1C(Cl)=C(Nc2cccc(O)c2)C(=O)N1c1ccc(Cl)cc1Cl", "tgt": "SF-295 CNS", "class_assignment": "class 1"}
{"compound": "COc1ccc(C(=O)c2cc(OC)c(OC)c(OC)c2)cc1/C=C/C(=O)c1ccc2c(c1)OCO2", "tgt": "SF-295 CNS", "class_assignment": "class 0"}
{"compound": "O=C1CSC(c2ccccc2[N+](=O)[O-])N1c1ccc(-n2c(-c3ccccc3)nc3ccccc3c2=O)cc1 (stereo not given)", "tgt": "SF-295 CNS", "class_assignment": "class 1"}
{"compound": "CCOC(=O)c1nc2cc(C(F)(F)F)ccc2nc1Oc1ccc(C(=O)OC)cc1", "tgt": "SF-295 CNS", "class_assignment": "class 1"}
{"compound": "O=C(Nc1ccc(N2C(=O)CSC2c2cccs2)cc1)c1ccc(N2C(=O)CSC2c2cccs2)cc1 (stereo not given)", "tgt": "SF-295 CNS", "class_assignment": "class 1"}
{"compound": "CCc1cccc(CC)c1NC(=O)c1ccn2c1CCc1cnc(Nc3ccc(N4CCN(C)CC4)cc3OC)nc1-2", "tgt": "SF-295 CNS", "class_assignment": "class 0"}
{"compound": "CN1CCc2cc(O)c3cc2C1Cc1ccc(cc1)Oc1cc(ccc1O)CC1c2c(cc4c(c2O3)OCO4)CCN1C (stereo not given)", "tgt": "SF-295 CNS", "class_assignment": "class 0"}
{"compound": "N#C/C(=C\\c1ccc([N+](=O)[O-])s1)c1nc2cc(Br)ccc2s1", "tgt": "SF-295 CNS", "class_assignment": "class 1"}
{"compound": "CCC(C)C(NC(=O)c1c2ccccc2nc2ccccc12)C(=O)O (stereo not given)", "tgt": "SF-295 CNS", "class_assignment": "class 1"}
{"compound": "COc1cc(S(=O)(=O)Nc2ccc(-c3csc(/N=C\\C=C\\c4ccccc4)n3)cc2)ccc1Cl", "tgt": "SF-295 CNS", "class_assignment": "class 1"}

* * *

test system: T-47D breast; assay: NCI tumour cell line growth inhibition, 48 h
Reported TGI values follow for various molecules
quantity_name: TGI

{"molecule": "CCNC(=O)c1ccc2c(c1)nc(-c1ccc(Cl)cc1)n2-c1cc(C(C)(C)C)[nH]n1", "quantity_name": "TGI", "result": "> 100 µM"}
{"molecule": "O=c1c2ccccc2n2n1Cc1ccccc1C2", "quantity_name": "TGI", "result": "> 100 µM"}
{"molecule": "CC(C)NCCCCCNc1cc(O)cc2cccnc12", "quantity_name": "TGI", "result": "> 100 µM"}
{"molecule": "O=C(Nn1c(-c2ccccc2)nc2ccccc2c1=O)c1ccc(O)cc1", "quantity_name": "TGI", "result": "> 100 µM"}
{"molecule": "Cc1cn(C2CC(N=[N+]=[N-])C(CO)O2)c(=O)n(CCCCO)c1=O (stereo unspecified)", "quantity_name": "TGI", "result": "> 100 µM"}
{"molecule": "O=C(Oc1ccc(OC(Oc2ccccc2)c2ccccc2)cc1)c1ccccc1 (stereo unspecified)", "quantity_name": "TGI", "result": "> 100 µM"}
{"molecule": "O=C1c2ccccc2-n2c1nc1cc(Cl)ccc1c2=O", "quantity_name": "TGI", "result": "48.8 µM"}
{"molecule": "O=C(OC(CNc1c(C(=O)c2ccccc2)c(=O)n(Cc2ccccc2)c(=O)n1Cc1ccccc1)CN1CCCCC1)c1ccccc1 (stereo unspecified)", "quantity_name": "TGI", "result": "> 100 µM"}
{"molecule": "CCN(CC)CCOCC1CCCN2CCCCC12 (stereo unspecified)", "quantity_name": "TGI", "result": "> 100 µM"}
{"molecule": "COc1cc(C(=O)Nc2cc(O)c(C/C=C(\\C)CCC=C(C)C)c(O)c2)cc2c1O[C@]1(C)CC[C@@H](O)C(C)(C)[C@H]1C2", "quantity_name": "TGI", "result": "4.88 µM"}
{"molecule": "Cc1csc(-c2ccc3c(c2)COC3(CCCN(C)C)c2ccc(F)cc2)c1 (stereo unspecified)", "quantity_name": "TGI", "result": "4.62 µM"}
{"molecule": "O=c1[nH]cnc2c1ncn2C1SC(CO)C(O)C1O (stereo unspecified)", "quantity_name": "TGI", "result": "> 100 µM"}
{"molecule": "Cc1ccc(Nc2cc(=O)[nH]c(=O)[nH]2)cc1CS", "quantity_name": "TGI", "result": "> 100 µM"}
{"molecule": "O=C(/C=C/c1cccs1)c1ccc(Cl)s1", "quantity_name": "TGI", "result": "> 100 µM"}
{"molecule": "Cc1[nH]c2ccccc2c1C1=CC(=O)C=CC1=O", "quantity_name": "TGI", "result": "5.75 µM"}
{"molecule": "Cc1cc2c(=O)c3ccccc3oc2c(C#N)c1C", "quantity_name": "TGI", "result": "> 100 µM"}

* * *

test system: HCT-15 colon; test: NCI tumour cell line growth inhibition, 48 h
quantity_name: TGI

{"molecule": "CNC(=O)OCc1cc2ccncc2c2c1[nH]c1ccccc12", "quantity_name": "TGI", "result": "> 100 µM"}
{"molecule": "Cc1cc(S(=O)(=O)Nc2nc(N)nc(N(C)C)n2)c(SC(C(=O)O)c2ccccc2)cc1Cl (configuration not stated)", "quantity_name": "TGI", "result": "> 10 µM"}
{"molecule": "CC(=O)Nc1ccc(S(=O)(=O)c2ccc(NC(C)=O)cc2)cc1", "quantity_name": "TGI", "result": "> 100 µM"}
{"molecule": "O=C(Nc1ccc(O)c(NS(=O)(=O)c2ccc(F)cc2)c1)c1ccc(-c2ccccc2)cc1", "quantity_name": "TGI", "result": "17.3 µM"}
{"molecule": "Cc1cc(=O)[nH]c(NN2C(Cl)C(=O)C2c2c(O)ccc3ccccc23)n1 (configuration not stated)", "quantity_name": "TGI", "result": "36.9 µM"}
{"molecule": "CCCCC1=CC1(C#N)[N+](=O)[O-] (configuration not stated)", "quantity_name": "TGI", "result": "> 100 µM"}
{"molecule": "CO[C@]12CCC(=O)N1C=Cc1c2[nH]c2ccccc12", "quantity_name": "TGI", "result": "> 100 µM"}

# credit: PubChem BioAssay (NCI)
